biological target: human recombinant HDAC6 (Homo sapiens); construct: purchased Calbiochem 382180; assay: HDAC6 enzyme activity inhibition test (HDAC Fluorometric Drug Discovery Kit); type: biochemical; settings: HDAC6 over HDAC1
RECORDED_ENDPOINT: HDAC6 selectivity (fold)
Record the result as a number with its unit.

Note to self: HDAC6 selectivity (fold) recorded for `CC1CCN(Cc2ccc(-c3nn(Cc4ccc(-c5nnc(C(F)F)o5)cn4)c(=S)o3)cc2)CC1` was 1208 fold

Note to self: HDAC6 selectivity (fold) recorded for `CN1CCC(c2cc(-c3nn(Cc4ccc(-c5nnc(C(F)F)o5)cn4)c(=S)o3)ccc2F)CC1` was 483 fold

Note to self: HDAC6 selectivity (fold) recorded for `CC(=O)N1CC(N2CCC(c3cccc(-c4nn(Cc5ccc(-c6nnc(C(F)F)o6)cn5)c(=O)o4)c3F)CC2)C1` was 626 fold

Note to self: HDAC6 selectivity (fold) recorded for `Fc1cc(-c2nnc(C(F)F)o2)cnc1Cn1nc(-c2cccc(CN3CCC3)c2)oc1=S` was 742 fold

Note to self: HDAC6 selectivity (fold) recorded for `O=c1oc(-c2cccc3[nH]ccc23)nn1Cc1ccc(-c2nnc(C(F)F)o2)cn1` was 1695 fold

Note to self: HDAC6 selectivity (fold) recorded for `CC(C)N1CCN(Cc2cccc(-c3nn(Cc4ccc(-c5nnc(C(F)F)o5)cn4)c(=O)s3)c2)CC1` was 620 fold

Note to self: HDAC6 selectivity (fold) recorded for `O=c1oc(-c2cccc(F)c2)cn1Cc1ccc(-c2nnc(C(F)F)o2)cn1` was 374 fold

Note to self: HDAC6 selectivity (fold) recorded for `FC(F)c1nnc(-c2ccc(Cn3nc(-c4cccc(CN5CC[C@H](F)C5)c4)oc3=S)nc2)o1` was 835 fold

----------
Biological target: human recombinant HDAC6 (Homo sapiens, UniProt Q9UBN7)
Construct: purchased Calbiochem 382180
Sequence (Q9UBN7 1-1215): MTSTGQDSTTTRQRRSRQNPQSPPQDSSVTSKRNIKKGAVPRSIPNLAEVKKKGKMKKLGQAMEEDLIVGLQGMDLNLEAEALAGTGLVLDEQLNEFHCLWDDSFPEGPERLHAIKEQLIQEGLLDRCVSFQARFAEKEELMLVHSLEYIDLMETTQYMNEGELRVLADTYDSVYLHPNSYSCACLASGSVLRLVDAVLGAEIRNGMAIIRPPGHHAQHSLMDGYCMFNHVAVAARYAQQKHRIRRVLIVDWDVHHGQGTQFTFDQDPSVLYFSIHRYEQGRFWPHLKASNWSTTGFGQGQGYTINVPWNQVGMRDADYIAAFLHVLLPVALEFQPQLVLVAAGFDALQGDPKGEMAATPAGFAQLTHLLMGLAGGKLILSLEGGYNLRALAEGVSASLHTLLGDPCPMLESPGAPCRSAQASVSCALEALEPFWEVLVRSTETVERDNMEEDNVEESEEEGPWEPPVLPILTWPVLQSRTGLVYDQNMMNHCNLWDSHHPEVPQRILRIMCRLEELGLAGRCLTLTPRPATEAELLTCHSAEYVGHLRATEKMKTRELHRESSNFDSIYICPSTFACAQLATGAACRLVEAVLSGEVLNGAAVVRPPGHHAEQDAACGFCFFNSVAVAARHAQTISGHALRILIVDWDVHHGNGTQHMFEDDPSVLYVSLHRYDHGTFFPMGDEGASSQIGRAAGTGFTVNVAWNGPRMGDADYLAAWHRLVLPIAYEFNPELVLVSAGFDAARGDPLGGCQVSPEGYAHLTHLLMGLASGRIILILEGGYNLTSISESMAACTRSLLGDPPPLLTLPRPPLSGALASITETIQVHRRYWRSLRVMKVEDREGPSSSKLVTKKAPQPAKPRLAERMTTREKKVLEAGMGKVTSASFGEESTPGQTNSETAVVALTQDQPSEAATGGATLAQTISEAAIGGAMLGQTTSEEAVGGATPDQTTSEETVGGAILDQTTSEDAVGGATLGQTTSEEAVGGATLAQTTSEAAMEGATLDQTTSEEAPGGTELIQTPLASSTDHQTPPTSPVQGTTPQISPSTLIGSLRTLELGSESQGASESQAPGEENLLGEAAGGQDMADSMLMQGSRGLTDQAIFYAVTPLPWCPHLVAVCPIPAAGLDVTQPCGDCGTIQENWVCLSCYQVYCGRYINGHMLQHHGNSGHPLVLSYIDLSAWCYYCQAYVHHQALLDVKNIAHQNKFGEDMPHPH
Experiment: HDAC6 enzyme activity inhibition test (HDAC Fluorometric Drug Discovery Kit)
Type: biochemical
Conditions: HDAC6 over HDAC1
Label rule, in plain words: HDAC6 selectivity (fold) of 700 fold and up is Condition met, under 700 fold is Condition not met.

In: Hello, I need to know if CN1CCN(c2ccc(-c3nn(Cc4ccc(-c5nnc(C(F)F)o5)cn4)c(=O)o3)cc2)CC1 [Compound 21] has measured HDAC6 selectivity (fold) not below 700 fold. Thanks!
Out: Condition not met

In: Hello, I need to know if O=C1OCC(c2ccccn2)=NN1Cc1ncc(-c2nnc(C(F)F)o2)cc1F [Compound 73] has measured HDAC6 selectivity (fold) not below 700 fold. Thanks!
Out: Condition not met

In: Hello, I need to know if FC(F)c1nnc(-c2ccc(Cn3nc(-c4ccc(CN5CC[C@@H](F)C5)cc4)oc3=S)nc2)o1 [Compound 97] has measured HDAC6 selectivity (fold) not below 700 fold. Thanks!
Out: Condition met

In: Hello, I need to know if FC(F)c1nnc(-c2ccc(Cn3nc(-c4ccnc(N5CCN(C6CCCC6)CC5)c4)oc3=S)nc2)o1 [Compound 106] has measured HDAC6 selectivity (fold) not below 700 fold. Thanks!
Out: Condition not met

In: Hello, I need to know if Fc1cc(-c2nnc(C(F)F)o2)cnc1Cn1nc(-c2cccs2)oc1=S [Compound 51] has measured HDAC6 selectivity (fold) not below 700 fold. Thanks!
Out: Condition not met

In: Hello, I need to know if O=C1OCC(c2ccc(-c3ccccn3)s2)=NN1Cc1ccc(-c2nnc(C(F)F)o2)cn1 [Compound 74] has measured HDAC6 selectivity (fold) not below 700 fold. Thanks!
Out: Condition met

In: Hello, I need to know if Fc1c(-c2nn(Cc3ccc(-c4nnc(C(F)F)o4)cn3)c(=S)o2)cccc1C1CCN(C2CCCC2)CC1 [Compound 82] has measured HDAC6 selectivity (fold) not below 700 fold. Thanks!
Out: Condition not met

In: Hello, I need to know if CC1CCN(Cc2ccc(-c3nn(Cc4ncc(-c5nnc(C(F)F)o5)cc4F)c(=S)o3)cc2)CC1 [Compound 111] has measured HDAC6 selectivity (fold) not below 700 fold. Thanks!
Out: Condition not met

In: Hello, I need to know if FC(F)c1nnc(-c2ccc(Cn3nc(-c4cccc(CN5CC[C@@H](F)C5)c4)oc3=S)nc2)o1 [Compound 89] has measured HDAC6 selectivity (fold) not below 700 fold. Thanks!
Out: Condition met

In: Hello, I need to know if Fc1cc(-c2nnc(C(F)F)o2)cnc1Cn1nc(-c2cccnc2)oc1=S [Compound 62] has measured HDAC6 selectivity (fold) not below 700 fold. Thanks!
Out: Condition not met

In: Hello, I need to know if O=c1oc(-c2ccc(CN3CCC3)cc2)nn1Cc1ccc(-c2nnc(C(F)F)o2)cn1 [Compound 132] has measured HDAC6 selectivity (fold) not below 700 fold. Thanks!
Out: Condition not met

In: Hello, I need to know if CN1CCN(c2nccc(-c3nn(Cc4ccc(-c5nnc(C(F)F)o5)cn4)c(=S)o3)n2)CC1 [Compound 126] has measured HDAC6 selectivity (fold) not below 700 fold. Thanks!
Out: Condition met

In: Hello, I need to know if CC(C)N1CCC(c2cccc(-c3nn(Cc4ccc(-c5nnc(C(F)F)o5)cn4)c(=O)s3)c2F)CC1 [Compound 57] has measured HDAC6 selectivity (fold) not below 700 fold. Thanks!
Out: Condition met

In: Hello, I need to know if Cc1nc(-c2nn(Cc3ccc(-c4nnc(C(F)F)o4)cn3)c(=S)o2)cs1 [Compound 59] has measured HDAC6 selectivity (fold) not below 700 fold. Thanks!
Out: Condition not met

In: Hello, I need to know if O=c1oc(-c2cccc(N3CCNCC3)c2)nn1Cc1ccc(-c2nnc(C(F)F)o2)cn1 [Compound 36] has measured HDAC6 selectivity (fold) not below 700 fold. Thanks!
Out: Condition not met
